- System: HT-1197 cells
- Protocol Notes: Cell-based assay: anti-proliferative activity, Cell Counting Kit-8, 72 hours (HT-1197, negative control without MELK expression)
- Assay Context: Homo sapiens, HT1197, 72 h, HT1197 cells (negative control, no MELK expression), 72 hours
Where a name gives a salt, the structure may show the parent alone.
Reported Endpoint: IC50 (µM)

                                    molecule  observed
 0  CC(=O)c1cnc2ccc(-c3cc(F)c(O)c(Cl)c3)cc2c1Nc1ccc(N2CCN(C)CC2)nc1 [Example 487]       1.4
 1  CN(C)CCOc1ccc(Nc2c(C(=O)C3CC3)cnc3ccc(-c4cc(F)c(O)c(Cl)c4)cc23)cn1 [Example 710]         2
 2  CC(=O)c1cnc2ccc(-c3cc(Cl)c(O)c(Cl)c3)cc2c1N[C@@H]1CCC[C@@H](CN(C)C)C1 [Example 750]       1.7
 3  COc1cc(-c2ccc3ncc(C(=O)C4CC4)c(N[C@H]4CC[C@H](CN)CC4)c3c2)cc(Cl)c1O [Example 493]      0.82
 4  CN(C)CC1CCN(c2c(C(=O)C3CCCC3)cnc3ccc(-c4cc(F)c(O)c(Cl)c4)cc23)CC1 [Example 384]         4
 5  CC(=O)c1cnc2ccc(-c3cc(Cl)c(O)c(Cl)c3)cc2c1N[C@H]1CC[C@H](CN2CCCC2)CC1 [Example 767]        24
 6  CN(C)CC(O)c1ccc(Nc2c(C(=O)C3CC3)cnc3ccc(-c4cc(Cl)c(O)c(Cl)c4)cc23)cc1 (centres unmarked) [Example 709]       3.8
 7  COC1CCN(C2CCC(Nc3c(C(=O)C4CC4)cnc4ccc(-c5cc(F)c(O)c(Cl)c5)cc34)CC2)C1 (centres unmarked) [Example 686]       1.1
 8  COc1cc(-c2ccc3ncc(C(C)=O)c(N[C@H]4CC[C@H](CN5CCC[C@@H]5CO)CC4)c3c2)cc(Cl)c1O [Example 811]       5.4
 9  CN(C)CC1CCN(c2c(C(=O)C3CC3)cnc3ccc(-c4ccc(C(=O)O)cc4)cc23)CC1 [Example 492]        10
10  CN[C@H]1CC[C@H](n2cc(Nc3c(C(=O)C4CC4)cnc4ccc(-c5cc(Cl)c(O)c(Cl)c5)cc34)cn2)CC1 [Example 705]        10
11  COc1cc(-c2ccc3ncc(C(C)=O)c(N[C@H]4CC[C@H](CN5CCN(C)CC5)CC4)c3c2)cc(Cl)c1O [Example 787, hydrochloride]       5.2
12  CN(C)Cc1ccc(Nc2c(C(=O)C3CC3)cnc3ccc(-c4cc(F)c(O)c(Cl)c4)cc23)nc1 [Example 435]        12
13  N#Cc1cnc2ccc(-c3cc(F)c(O)c(Cl)c3)cc2c1N1CCC(CN2CCCC2)CC1 [Example 434]        10

----------
- System: HT-1197 cells
- Protocol Notes: Cell-based assay: anti-proliferative activity, Cell Counting Kit-8, 72 hours (HT-1197, negative control without MELK expression)
- Assay Context: Homo sapiens, HT1197, 72 h, HT1197 cells (negative control), 72 hours
Structures can show the parent of a compound that is named as a salt.
Reported Endpoint: IC50 (µM)

>>> print(df.to_string())
                                   molecule  system_tested  observed
0  COc1cc(-c2ccc3ncc(C(=O)C4CC4)c(Nc4ccc(CCN(C)C)cc4)c3c2)cc(Cl)c1O  HT-1197 cells       4.7
1  CC(=O)c1cnc2cc(F)c(-c3cc(Cl)c(O)c(Cl)c3)cc2c1N[C@H]1CC[C@H](CN(C)C)CC1 [Example 903, hydrochloride]  HT-1197 cells       1.5
2  CC(=O)c1cnc2ccc(-c3cc(F)c(O)c(Cl)c3)cc2c1N[C@H]1CC[C@H](NC(=O)C(N)C(C)C)CC1 (some centres unmarked)  HT-1197 cells       3.7
3  COc1cc(-c2ccc3ncc(C(=O)C4CC4)c(Nc4cnn(C5CCNCC5)c4)c3c2)cc(Cl)c1O  HT-1197 cells       2.9
4  CN(C)Cc1ccc(Nc2c(C(=O)C3CC3)cnc3cc(F)c(-c4cc(Cl)c(O)c(Cl)c4)cc23)cc1  HT-1197 cells       1.9

----------
- Test system: HT-1197 cells
- Protocol Notes: Cell-based assay: anti-proliferative activity, Cell Counting Kit-8, 72 hours (HT-1197, negative control without MELK expression)
- Assay Context: Homo sapiens, HT1197, 72 h, HT1197 cells (negative control), 72 hours
Counter-ions that a name gives are not always drawn.
API: label(entry) gives label 1 if the entry's IC50 is strictly smaller than 4 µM; on equality or larger values it gives label 0.

>>> df
                                   compound  group_label
0  NC1CCN(c2ncc(Nc3c(C(=O)C4CC4)cnc4ccc(-c5cc(Cl)c(O)c(Cl)c5)cc34)cn2)C1 (stereo not drawn) [Example 574]      label 1
1  O=C(c1cnc2ccc(-c3cc(Cl)c(O)c(Cl)c3)cc2c1N[C@H]1CC[C@H](CN2CCCC2)CC1)C1CC1 [Example 584]      label 1
2  CC(=O)c1cnc2ccc(-c3cc(Cl)c(O)c(Cl)c3)cc2c1N[C@H]1CC[C@H](NC(=O)C(N)C(C)C)CC1 (stereo partly drawn) [Example 915]      label 1
3  CC(=O)c1cnc2ccc(-c3cc(F)c(O)c(Cl)c3)cc2c1N[C@H]1CC[C@H](NC(=O)[C@H](C)N)CC1 (stereo in doubt) [Example 878]      label 0
4  COc1cc(-c2cc3c(N[C@H]4CC[C@H](CN5CCCC5)CC4)c(C(C)=O)cnc3cc2F)cc(Cl)c1O [Example 926, hydrochloride]      label 0
5  CC(C)C(=O)c1cnc2ccc(-c3cc(Cl)c(O)c(Cl)c3)cc2c1N[C@H]1CC[C@H](CN(C)C)CC1 [Example 608]      label 1

----------
- Test system: T47D cells
- Protocol Notes: Cell-based assay: anti-proliferative activity, Cell Counting Kit-8, 72 hours (T47D)
- Assay Context: Homo sapiens, T47D, 72 h
Counter-ions that a name gives are not always drawn.
Reported Endpoint: IC50 (µM)

                                    compound  reported_endpoint  observed
 0  CN[C@H]1CC[C@H](Nc2c(C(=O)C3CC3)cnc3ccc(-c4cnc(C#N)nc4)cc23)CC1 [Example 522]               IC50      0.23
 1  CN(CCO)C[C@H]1CC[C@H](Nc2c(C(=O)C3CC3)cnc3ccc(-c4cc(Cl)c(O)c(Cl)c4)cc23)CC1 [Example 634]               IC50     0.099
 2  CCOc1cc(-c2ccc3ncc(C(=O)C4CC4)c(N4CCC(CN(C)C)CC4)c3c2)cc(Cl)c1O [Example 457]               IC50      0.22
 3  CN(C)C1CCN(C[C@H]2CC[C@H](Nc3c(C(=O)C4CC4)cnc4ccc(-c5cc(F)c(O)c(Cl)c5)cc34)CC2)C1 (some centres unmarked) [Example 662]               IC50      0.19
 4  CN(C)Cc1cccc(Nc2c(C(=O)C3CC3)cnc3ccc(-c4cc(Cl)c(O)c(Cl)c4)cc23)c1 [Example 624]               IC50      0.55
 5  COc1cc(-c2ccc3ncc(C(C)=O)c(Nc4ccc(CN(C)C)cc4)c3c2)cc(Cl)c1O [Example 391]               IC50      0.12
 6  COc1cc(-c2cc3c(Nc4ccc(N5CCNCC5)nc4)c(C(=O)C4CC4)cnc3cc2F)cc(Cl)c1O [Example 578]               IC50         3
 7  COc1cc(-c2ccc3ncc(C(=O)C4CC4)c(N[C@H]4CC[C@H](CN5CCCC5)CC4)c3c2)cc(Cl)c1O [Example 586]               IC50      0.38
 8  CN[C@H]1CC[C@H](Nc2c(C(C)=O)cnc3ccc(-c4cc(F)c(O)c(Cl)c4)cc23)CC1 [Example 560]               IC50     0.041
 9  COc1cc(-c2ccc3ncc(C(=O)C4CCCC4)c(N[C@H]4CC[C@H](CN(C)C)CC4)c3c2)cc(Cl)c1O [Example 916, hydrochloride]               IC50       1.2
10  COc1cc(-c2ccc3ncc(C(=O)C4CC4)c(NCC(=O)N4CCN(C)CC4)c3c2)cc(Cl)c1O [Example 395]               IC50        10
11  COc1cc(-c2ccc3ncc(C(=O)C4CC4)c(N[C@H]4CC[C@@H](CN(C)CC#N)CC4)c3c2)cc(Cl)c1O [Example 518]               IC50      0.16
12  CN(C)CCc1cccc(Nc2c(C(=O)C3CC3)cnc3ccc(-c4cc(Cl)c(O)c(Cl)c4)cc23)c1 [Example 698]               IC50       0.3
13  N[C@H]1CCCN(c2ccc(Nc3c(C(=O)C4CC4)cnc4ccc(-c5cc(F)c(O)c(Cl)c5)cc34)cn2)C1 [Example 648]               IC50    0.0095
